# System: T-47D breast
# Measurement notes: NCI tumour cell line growth inhibition, 48 h; in the data active = GI50 below about 0.43 µM; inactive = the rest
Outcome codes: active, inactive

[
  {
    "Compound": "O=C(Nc1ccc([As]=[As]c2ccc(NC(=O)c3ccccc3)cc2)cc1)c1ccccc1 (stereo not drawn)",
    "Test system": "T-47D breast",
    "Class": "active"
  },
  {
    "Compound": "O=C(Nc1cccc(Cl)c1)Nc1nccs1",
    "Test system": "T-47D breast",
    "Class": "inactive"
  },
  {
    "Compound": "Cc1cc(Nc2ccc3c(c2)OCO3)c2cc3c(cc2n1)OCO3",
    "Test system": "T-47D breast",
    "Class": "inactive"
  }
]

###

# System: CAKI-1 renal
# Measurement notes: NCI tumour cell line growth inhibition, 48 h

[
  {
    "Compound": "Oc1cccc(-c2nc(-c3n[nH]c(=S)n3-c3ccccc3)cc3c2[nH]c2ccccc23)c1",
    "Test system": "CAKI-1 renal",
    "TGI": "11.9 µM"
  },
  {
    "Compound": "CC1=NN(C(=O)CC(=O)N(C(=O)c2ccccc2)c2ccc(Cl)cc2)C(=O)C1N=Nc1ccc([N+](=O)[O-])cc1 (configuration not stated)",
    "Test system": "CAKI-1 renal",
    "TGI": "> 10 µM"
  },
  {
    "Compound": "Cc1cc2c3ccccc3nc2c2cc[nH]c(C)c12",
    "Test system": "CAKI-1 renal",
    "TGI": "51 µM"
  },
  {
    "Compound": "COc1ccc(Nc2nc3c(N)cc(C(F)(F)F)cc3nc2-c2ccccc2)cc1OC",
    "Test system": "CAKI-1 renal",
    "TGI": "42.5 µM"
  },
  {
    "Compound": "S=C1N=C2C(=N1)n1c3c(c4ccccc41)CCCC23 (configuration not stated)",
    "Test system": "CAKI-1 renal",
    "TGI": "> 100 µM"
  },
  {
    "Compound": "CC1=NN(C(=O)c2ccc(Cl)cc2)C(=O)C1N=Nc1ccc(S(=O)(=O)Nc2ncccn2)cc1 (configuration not stated)",
    "Test system": "CAKI-1 renal",
    "TGI": "> 100 µM"
  },
  {
    "Compound": "C[Si](C)(c1ccccc1)C1CC(=O)CC(=O)C1",
    "Test system": "CAKI-1 renal",
    "TGI": "> 100 µM"
  },
  {
    "Compound": "Cc1ccc(NC(=O)SCCC(=O)O)cc1",
    "Test system": "CAKI-1 renal",
    "TGI": "> 100 µM"
  },
  {
    "Compound": "O=C(Nc1cccc(Cl)c1)Nc1nccs1",
    "Test system": "CAKI-1 renal",
    "TGI": "43.5 µM"
  },
  {
    "Compound": "O=C(O)c1ccccc1Sc1ccccc1[N+](=O)[O-]",
    "Test system": "CAKI-1 renal",
    "TGI": "> 100 µM"
  },
  {
    "Compound": "O=C1c2cc3ccccc3cc2C2(c3ccc(Cl)cc3)NCCN12 (configuration not stated)",
    "Test system": "CAKI-1 renal",
    "TGI": "> 100 µM"
  },
  {
    "Compound": "C=C1C(=O)OC2/C=C(/CO)C3(O)CC(O)C(C)(CC(OC(=O)/C(C)=C/C)C12)O3 (configuration not stated)",
    "Test system": "CAKI-1 renal",
    "TGI": "11.6 µM"
  },
  {
    "Compound": "[N-]=[N+]=NC1C2CC3C4CC5CC3[C@H](C2)C(C5)C41 (some centres not stated)",
    "Test system": "CAKI-1 renal",
    "TGI": "> 100 µM"
  },
  {
    "Compound": "[N-]=[N+]=Nc1c(N2CCOCC2)c(Cl)nc2ccccc12",
    "Test system": "CAKI-1 renal",
    "TGI": "> 100 µM"
  },
  {
    "Compound": "CN(C)CCCNCc1ccc(-c2ccc(F)c(Cl)c2)o1",
    "Test system": "CAKI-1 renal",
    "TGI": "27.3 µM"
  },
  {
    "Compound": "O=C(OCCOC(=O)c1ccc2c(c1)C1(SCCS1)c1ccccc1-2)c1ccc2c(c1)C1(SCCS1)c1ccccc1-2",
    "Test system": "CAKI-1 renal",
    "TGI": "> 100 µM"
  },
  {
    "Compound": "Cc1ccc(S(=O)(=O)NC(C(=O)O)C(C)C)cc1 (configuration not stated)",
    "Test system": "CAKI-1 renal",
    "TGI": "> 100 µM"
  },
  {
    "Compound": "CC1(C)CN=C(Nc2ccc(F)cc2)S1",
    "Test system": "CAKI-1 renal",
    "TGI": "> 100 µM"
  },
  {
    "Compound": "COc1cc(-c2csc(NC(=O)Nc3ccc(Cl)c(C(F)(F)F)c3)n2)cc(OC)c1OC",
    "Test system": "CAKI-1 renal",
    "TGI": "3.62 µM"
  },
  {
    "Compound": "N#Cc1nc(C(O)c2ccccc2)oc1N (configuration not stated)",
    "Test system": "CAKI-1 renal",
    "TGI": "> 100 µM"
  },
  {
    "Compound": "COC1(OC)CC(CO)(CNc2nc(N)nc(Cl)c2C=O)C1",
    "Test system": "CAKI-1 renal",
    "TGI": "> 100 µM"
  },
  {
    "Compound": "CCOP(=O)(OCC)/C(C#N)=C\\c1ccc(OC(C)=O)cc1",
    "Test system": "CAKI-1 renal",
    "TGI": "> 100 µM"
  },
  {
    "Compound": "C/C(=N\\NC(=O)c1ccncc1)c1cccc(F)c1",
    "Test system": "CAKI-1 renal",
    "TGI": "> 10 µM"
  },
  {
    "Compound": "O=C(Nc1ccc(Cl)cc1)c1cc2c(cc1Cl)Sc1nccn1S2(=O)=O",
    "Test system": "CAKI-1 renal",
    "TGI": "> 100 µM"
  },
  {
    "Compound": "CCCC(=O)c1c(NOC2OCC(OC(C)=O)C(OC(C)=O)C2OC(C)=O)nc(OC)n(C)c1=O (configuration not stated)",
    "Test system": "CAKI-1 renal",
    "TGI": "> 100 µM"
  },
  {
    "Compound": "O=C(N/N=C(\\CN1CCN(c2cc3[nH]cc(C(=O)O)c(=O)c3cc2F)CC1)c1ccc(Cl)cc1)c1ccncc1",
    "Test system": "CAKI-1 renal",
    "TGI": "5.61 µM"
  },
  {
    "Compound": "C[n+]1c2ccccc2c(Nc2ccc(N3CCCCC3)cc2)c2[nH]c3ccccc3c21",
    "Test system": "CAKI-1 renal",
    "TGI": "1.06 µM"
  },
  {
    "Compound": "c1ccc2c(CC3NCCN3)cccc2c1",
    "Test system": "CAKI-1 renal",
    "TGI": "> 100 µM"
  },
  {
    "Compound": "CC(=O)OCCOCn1c2c(c(=O)[nH]c1=O)CCC2",
    "Test system": "CAKI-1 renal",
    "TGI": "> 100 µM"
  },
  {
    "Compound": "CN(/N=C(\\C(=O)O)c1ccccc1)C1=NCCN1",
    "Test system": "CAKI-1 renal",
    "TGI": "> 100 µM"
  },
  {
    "Compound": "COC(=O)C1CCC2(C)[C@H](CCC3O[C@]32C)[C@@]1(C)CC(=O)c1ccoc1 (some centres not stated)",
    "Test system": "CAKI-1 renal",
    "TGI": "> 100 µM"
  },
  {
    "Compound": "CC(O)CCc1ccc(Oc2c3ccccc3nc3occc23)cc1 (configuration not stated)",
    "Test system": "CAKI-1 renal",
    "TGI": "13.5 µM"
  },
  {
    "Compound": "CN(C)CCNc1ccc(NCC[N+](C)(C)Cc2ccc([N+](=O)[O-])cc2)c2c1C(=O)c1ccccc1C2=O",
    "Test system": "CAKI-1 renal",
    "TGI": "> 25 µM"
  },
  {
    "Compound": "O=C(/C=C/c1ccc(Br)cc1)c1ccc(NCc2nc3ccccc3[nH]2)cc1",
    "Test system": "CAKI-1 renal",
    "TGI": "> 57.4 µM"
  },
  {
    "Compound": "CC(C)(C)c1cc(OCc2nnc3sc(-c4ccc(Cl)cc4)nn23)c(Cl)cc1OCc1nnc2sc(-c3ccc(Cl)cc3)nn12",
    "Test system": "CAKI-1 renal",
    "TGI": "11.4 µM"
  },
  {
    "Compound": "CN1CCN(CC(=O)N2c3ccccc3Sc3cc4ccccc4cc32)CC1",
    "Test system": "CAKI-1 renal",
    "TGI": "26 µM"
  },
  {
    "Compound": "CCOC(=O)C(NC(=O)CC)(Nc1ccccc1OC)C(F)(F)F (configuration not stated)",
    "Test system": "CAKI-1 renal",
    "TGI": "> 100 µM"
  },
  {
    "Compound": "CSC(=NC#N)S/C=C/C(=O)c1ccc(Cl)cc1",
    "Test system": "CAKI-1 renal",
    "TGI": "35.6 µM"
  },
  {
    "Compound": "CCN(CC)CCCNc1[nH]ncc2cc3c(nc4ccccc43)c(C)c12",
    "Test system": "CAKI-1 renal",
    "TGI": "> 100 µM"
  },
  {
    "Compound": "CC1=C(c2cc(C(=O)Nc3cc(C)ccc3C)nc(N)n2)Sc2ccccc2N1",
    "Test system": "CAKI-1 renal",
    "TGI": "> 100 µM"
  },
  {
    "Compound": "O=C(N/N=C/c1cc(Cl)cc(Cl)c1[O-])c1ccccc1O.O=C(N/N=C/c1cc(Cl)cc(Cl)c1[O-])c1ccccc1O.[Cl-].[Fe+3]",
    "Test system": "CAKI-1 renal",
    "TGI": "> 100 µM"
  },
  {
    "Compound": "O=[N+]([O-])c1ccc2c(c1)C(=NO)c1cc([N+](=O)[O-])ccc1-2",
    "Test system": "CAKI-1 renal",
    "TGI": "> 100 µM"
  }
]
